Record form. Attribute: pIC50. Fill in for each entry.
target: human, recombinant full-length HDAC6 (Homo sapiens (Human), UniProt Q9UBN7); experiment: HDAC inhibition assay, HDAC6; assay type: biochemical; conditions: Table 1; mean of two experiments ± standard deviation, 10-point enzyme assay
Sequence (Q9UBN7 whole entry): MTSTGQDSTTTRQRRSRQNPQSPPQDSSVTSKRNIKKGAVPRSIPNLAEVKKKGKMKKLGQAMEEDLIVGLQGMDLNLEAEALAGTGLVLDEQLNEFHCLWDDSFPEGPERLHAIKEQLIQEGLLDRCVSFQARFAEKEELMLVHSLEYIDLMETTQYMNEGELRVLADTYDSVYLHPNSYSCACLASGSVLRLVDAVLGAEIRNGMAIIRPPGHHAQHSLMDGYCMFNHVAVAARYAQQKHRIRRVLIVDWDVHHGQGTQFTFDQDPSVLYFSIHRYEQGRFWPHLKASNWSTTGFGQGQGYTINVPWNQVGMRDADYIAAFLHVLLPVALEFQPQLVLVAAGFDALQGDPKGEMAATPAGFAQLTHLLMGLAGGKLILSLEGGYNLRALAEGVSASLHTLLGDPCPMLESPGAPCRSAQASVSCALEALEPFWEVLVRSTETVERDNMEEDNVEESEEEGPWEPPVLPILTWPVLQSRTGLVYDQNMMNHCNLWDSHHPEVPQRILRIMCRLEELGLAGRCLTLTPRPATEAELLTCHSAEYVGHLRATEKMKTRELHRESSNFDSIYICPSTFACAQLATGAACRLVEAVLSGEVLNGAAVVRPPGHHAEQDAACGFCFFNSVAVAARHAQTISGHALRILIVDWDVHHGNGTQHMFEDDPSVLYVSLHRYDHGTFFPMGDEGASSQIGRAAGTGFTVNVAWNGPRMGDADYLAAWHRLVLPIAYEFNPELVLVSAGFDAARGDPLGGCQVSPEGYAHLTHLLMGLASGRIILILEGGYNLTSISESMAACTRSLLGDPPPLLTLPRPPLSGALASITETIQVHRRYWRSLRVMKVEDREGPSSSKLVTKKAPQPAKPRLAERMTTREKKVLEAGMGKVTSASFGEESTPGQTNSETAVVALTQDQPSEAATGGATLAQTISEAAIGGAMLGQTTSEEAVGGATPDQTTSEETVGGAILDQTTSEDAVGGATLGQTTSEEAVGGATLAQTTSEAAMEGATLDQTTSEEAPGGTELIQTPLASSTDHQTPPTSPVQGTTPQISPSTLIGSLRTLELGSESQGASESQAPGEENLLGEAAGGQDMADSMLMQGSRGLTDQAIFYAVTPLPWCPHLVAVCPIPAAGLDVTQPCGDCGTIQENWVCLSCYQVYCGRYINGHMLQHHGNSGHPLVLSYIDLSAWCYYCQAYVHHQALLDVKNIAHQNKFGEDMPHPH
Numbers only, as −log10 of the molar value.

Consider the following illustrative entries.
- smiles_code: "Cc1cc(NC(=O)NCc2ccc(C(=O)NO)cc2)no1"
  test_target: "human, recombinant full-length HDAC6 (Homo sapiens (Human), UniProt Q9UBN7)"
  pIC50: 8.16
- smiles_code: "COCCCN(Cc1ccc(C(=O)NO)cc1)C(=O)Nc1ccccc1"
  test_target: "human, recombinant full-length HDAC6 (Homo sapiens (Human), UniProt Q9UBN7)"
  pIC50: 7.93
- smiles_code: "COc1ccccc1NC(=O)N(CCc1c[nH]c2ccccc12)Cc1ccc(C(=O)NO)cc1"
  test_target: "human, recombinant full-length HDAC6 (Homo sapiens (Human), UniProt Q9UBN7)"
  pIC50: 6.33

Respectfully, I request pIC50 for each entry included below.
1. Cc1ccnc(NC(=O)NCc2ccc(C(=O)NO)cc2)c1
2. O=C(NO)c1ccc(CN(CCc2ccccc2)C(=O)Nc2ccccc2)cc1
3. CCCCN(C(=O)NCc1ccc(C(=O)NO)cc1)c1ccccc1

Key:
1: 8.66; 2: 7.85; 3: 7.60

----------
biological target: human, recombinant full-length HDAC6 (Homo sapiens (Human)); assay: HDAC inhibition assay, HDAC6; assay type: biochemical; details: Table 1
So I've got a bunch of compounds here, and I need their Fold Selective (HDAC1/HDAC6) values.
Give bare numbers.

Worked cases, Fold Selective (HDAC1/HDAC6) given:
- compound: "COc1ccccc1NC(=O)N(CCCO)Cc1ccc(C(=O)NO)cc1 [Compound 5b]"
  reported_value: 803
- compound: "COCCCN(Cc1ccc(C(=O)NO)cc1)C(=O)Nc1ccccc1 [Compound 5e]"
  reported_value: 443

The compound identified as COc1ccccc1NC(=O)NCc1ccc(C(=O)NO)cc1 [Compound 1] registered its Fold Selective (HDAC1/HDAC6) at 2

----------
biological target: human, recombinant full-length HDAC6 (Homo sapiens (Human), UniProt Q9UBN7); test: HDAC inhibition assay, HDAC6; type: biochemical; details: Table 1; mean of two experiments ± standard deviation, 10-point enzyme assay;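 note: recombinant full-length human HDAC1 and HDAC6 made in Sf9 cells, compound preincubated 5-10 min then substrate reaction 2 h at 30 °C, ten threefold dilutions from 30 µM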
Provide the recorded pIC50 for the entries that follow.
Answers are plain numbers, as −log10 of the molar value.

- smiles_code: "COc1ccc(NC(=O)NCc2ccc(C(=O)NO)cc2)cc1"
  pIC50: 8.08
- smiles_code: "COc1ccccc1NC(=O)N(CCc1ccc(O)cc1)Cc1ccc(C(=O)NO)cc1"
  pIC50: 8.24
- smiles_code: "COc1ccccc1NC(=O)N(CCCO)Cc1ccc(C(=O)NO)cc1"
  pIC50: 8.62
- smiles_code: "COc1ccccc1NC(=O)NCc1ccc(C(=O)NO)cc1"
  pIC50: 6.86
- smiles_code: "COc1ccccc1NC(=O)N(CCCN(C)C)Cc1ccc(C(=O)NO)cc1"
  pIC50: 6.34

Next compound, please.
// returns pIC50 for `COCCN(Cc1ccc(C(=O)NO)cc1)C(=O)Nc1ccccc1` with human, recombinant full-length HDAC6 (Homo sapiens (Human), UniProt Q9UBN7); value = 8.03

Origin of values: patent US9409858B2
